The measured values listed here are drawn from PubChem BioAssay (NCI).

Test system: SF-268 CNS
Assay: NCI-60 one-dose screen, 48 h
Conditions: 10 µM unless noted
This is part of a sample that, as a whole, favours compounds with a hit. Of some 83,000 tested, about 20% had one in any assay. Calls of active or inactive are those of the source. How the source made its calls: active means growth percent below 10; inactive means the rest.
Outcome codes: active, inactive

> print(dat)
                                    compound  test.target  class.name
 1  O=C(/C=C/c1ccccc1)C(Br)C(Br)c1ccccc1 (stereo unspecified)   SF-268 CNS    inactive
 2  CN(CCO)c1ccc(N2Cc3ccccc3OC3=C2C(=O)c2c(O)ccc(O)c2C3=O)cn1   SF-268 CNS      active
 3  COc1ccc(C2=NN(C=O)C(c3ccc(OS(=O)(=O)c4ccc(C)cc4)c(OC)c3)C2)cc1 (stereo unspecified)   SF-268 CNS    inactive
 4  COc1ccc2[nH]cc(/C=C3\C(=O)Nc4ccccc43)c2c1   SF-268 CNS    inactive
 5  COc1c(C(=O)/C=C/c2ccc(C)o2)c(O)cc2occc12   SF-268 CNS    inactive
 6  O=c1cc(N2CCOCC2)oc2c(-c3ccc4c(c3)OCCO4)csc12   SF-268 CNS    inactive
 7  O=C(Cc1ccc(Nc2ccnc(C(F)(F)F)c2)cc1)N/N=C/c1ccccc1O   SF-268 CNS    inactive
 8               Cc1c(O)c(=O)n(-c2ccccc2)n1C   SF-268 CNS    inactive
 9             CC(=O)N[C@@H](CCC(N)=O)C(=O)O   SF-268 CNS    inactive
10  C=CCn1c(C)nc2cc(Nc3nc(N4CCOCC4)nc4nc[nH]c34)ccc21   SF-268 CNS    inactive
11       Clc1cn2cc(-c3ccc(Cl)c(Cl)c3Cl)nc2s1   SF-268 CNS    inactive

====

Reported growth values follow for various compounds
Test system: SK-OV-3 ovarian
Experiment: NCI-60 one-dose screen, 48 h (100 = growth as untreated, 0 = no growth, -100 = all killed)
Conditions: 10 µM unless noted
This is part of a sample that, as a whole, favours compounds with a hit. Of some 83,000 tested, about 20% had one in any assay.

Compound	Reading unit	growth
COc1ccc([C@@H]2[C@@H](Oc3ccccc3)C(=O)N2c2cc(OC)c(OC)c(OC)c2)cc1F	%	16.6
c1ccc2c(c1)cnc1ccccc12	%	96.1
N#Cc1c(N)n(C2OC(CO)C(O)C2O)c2ncnc(N)c12 (stereo unspecified)	%	-0.358
CC(=O)N1N=C(c2ccc(C)cc2)CC1c1cn(-c2ccccc2)nc1-c1cccc(Nc2ccnc3cc(Cl)ccc23)c1 (stereo unspecified)	%	114
C=CCN(CCOC(=O)c1ccc([N+](=O)[O-])cc1)CCOC(=O)c1ccc([N+](=O)[O-])cc1	%	99.2
CCOC(=O)Nc1ccc2nc(-c3cscn3)[nH]c2c1	%	56.5
Oc1c(-c2cc(C(F)(F)F)[nH]n2)cc(Cl)c(OCc2ccc(Cl)cc2)c1-c1ccc(Cl)c(C(F)(F)F)c1	%	6.29
CCc1ccc(-c2ccc(NC3CCCCCC3)nn2)cc1S(N)(=O)=O	%	105
COc1cc(CN2CCO[C@H](COc3cccc(F)c3)C2)ccc1Cl	%	34.5
COc1ccc2c(c1)CCCC21C(=O)Nc2ccccc21 (stereo unspecified)	%	100
Clc1cn2cc(-c3ccc(Cl)c(Cl)c3Cl)nc2s1	%	103
COC(=O)C(CCC(=O)CCl)N1C(=O)c2ccccc2C1=O (stereo unspecified)	%	113
O=C(c1ccccc1)N(CCCCl)C(=O)N(CCCCl)C(=O)c1ccccc1	%	84.5
Cc1cc(C)c2c(n1)sc1c(Nc3ccc(OCc4ccccc4)cc3)ncnc12	%	106
COc1ccc2nc(C)cc(Nc3ccccc3O)c2c1	%	-41.5
Cc1cc(C)cc(NC(=O)Cn2nncc2CN2C(=O)CSC2=O)c1	%	92.5
COc1cc2nccc(Oc3ccc(NC(=O)C4(C(=O)Nc5c(F)cc(F)cc5F)CC4)cc3)c2cc1Oc1ccc(N)cn1	%	81.3
O=C(/C=C/c1ccccc1)n1c(-c2ccccc2)nc2ccccc21	%	110
Nc1n[nH]c2ccc([C@@H]3Nc4c(F)cc5[nH]ncc5c4[C@H]4C5CCC(C5)[C@@H]34)cc12 (stereo partly specified)	%	39.1
COc1cc(OC)cc(-c2n/c(=C\c3c(O)[nH]c4ccc(Cl)cc34)cc3c2=Nc2ccccc2-3)c1	%	114
CC[C@H](Nc1nc(N)nc(C2CC2)c1C#N)c1nc2cccc(NCc3ccc(C(=O)NO)cc3)c2c(=O)n1-c1ccccc1	%	-9.63
CCCCCCCCCCCCCCCC1=NCC[N+]1(CCO)CCO	%	95.1
C1=C\CCCCN2CC[C@H]3[C@H](CCCC/C=C\CCCN4C[C@@H](CCCCC/1)C[C@@H]3C4)C2	%	83.9
COc1ccc2c(c1)CCCC21C(=O)Nc2c(Cl)cccc21 (stereo unspecified)	%	71.9
Cc1cc(C)cc(CCCCCCCCCCCCCCCCCC(=O)O)c1	%	105
COC(=O)c1ccc(NC(N)=NCCC(C)(C)c2ccc(C(F)(F)F)cc2)nc1	%	60.2
C#CC[C@@H]1C[C@]2(C)[C@H]3CC=C4[C@H]5[C@@H](C)[C@H](C)CC[C@]5(C(=O)NCCCCCCCCN)CC[C@@]4(C)[C@]3(C)CC[C@H]2C(C)(C)[C@H]1OC(C)=O	%	116
CCCOC(=O)C1c2cc3c(cc2CC(C)C1C(=O)OCCC)OCO3 (stereo unspecified)	%	101
O=C1/C(=C\c2cccn2Cc2ccc(Cl)cc2)c2ccccc2N1c1c(Cl)cccc1Cl	%	86.7
CCCCn1c(-c2ccc(F)cc2)nc2cc(OC)c(OC)cc2c1=O	%	120
CCOC(=O)c1ccc(NCCC(=O)O)cc1	%	113
CC1(C)CC[C@]2(C(=O)N3CCNCC3)CC[C@]3(C)C(=CC[C@@H]4[C@@]5(C)CCC(=O)C(C)(C)[C@@H]5CC[C@]43C)[C@@H]2C1	%	109
CC(=O)N(C)c1ccc(Nc2cc(C)[nH]c3ccc4ncnc4c23)cc1	%	74.3
Cc1ccc(Nc2nc(NCCO)c3ccccc3n2)cc1C	%	-0.684
CCCCCCCCNC(C)C(O)c1ccc(SC(C)C)cc1 (stereo unspecified)	%	83.9
CC(=O)c1ccc(-n2c(-c3cc(-c4ccsc4)n[nH]3)n[nH]c2=S)cc1	%	104
COc1cc(Cn2c(-c3ccccc3)cc3c2-c2oncc2CC3)cc(OC)c1OC	%	13
COc1ccc(OC)c(Nc2nc(-c3c(C)nc4sccn34)cs2)c1	%	103
Cc1ccc(N=CNN=C(N)N)cc1	%	104
COc1cccc(NC(=O)[C@H](C(C)C)n2c(=O)[nH]c3ccccc3c2=O)c1	%	101
CN(C)c1ccc(/C=N/Nc2nnc3n2N=C(c2ccc(Cl)cc2)CS3)cc1	%	108

====

Tested on: 786-0 renal
Assay: NCI-60 one-dose screen, 48 h
Conditions: 10 µM unless noted
The panel holds about 83,000 compounds, 20% with a hit somewhere; the sample as a whole holds those more often. Active and inactive are the calls of the source. The calls were made as follows: active = growth percent below 10; inactive = the rest.
Outcome codes: yes (1) (active), no (0) (inactive)

> print(dat)
                                    compound  test.target  class.name
 1        Cc1ccc(-c2cnc3sc4ccc(Cl)cc4n23)cc1  786-0 renal      no (0)
 2  COc1ccc(/C=C(/C(=O)N2CCN(c3ccccc3)CC2)c2cc(OC)c(OC)c(OC)c2)cc1N  786-0 renal      no (0)
 3          NC(N)=N/N=C\c1ccc(OCc2ccccc2)cc1  786-0 renal      no (0)
 4  O=C(/C=C/c1cc([N+](=O)[O-])ccc1Cl)c1ccccc1  786-0 renal      no (0)
 5             Clc1ccccc1Nc1nnc(-c2ccncc2)s1  786-0 renal      no (0)
 6  COc1ccc(C2C3CCc4ccccc4C3=NN2C(=O)c2cc(OC)c(OC)c(OC)c2)cc1O (configuration not stated)  786-0 renal      no (0)
 7   Cc1ccc2cc3c(NC(=O)c4cccnc4)nn(C)c3nc2c1  786-0 renal      no (0)
 8   CN(C)c1ccc(/C=C(\C#N)c2nc3ccccc3n2C)cc1  786-0 renal      no (0)
 9  CNC(=O)c1cc(Oc2ccc(NC(=O)c3[nH]c(SC)nc3-c3ccc(F)cc3)cc2)ccn1  786-0 renal      no (0)
10  COc1ccc(-c2oc(=O)ccc2-c2cc(OC)c(OC)c(OC)c2)cc1F  786-0 renal      no (0)
11  CC(COC(=O)c1ccccc1)N1CC2CCC(C1)O2 (configuration not stated)  786-0 renal      no (0)
12         CC(C)OC(=O)c1ccc([N+](=O)[O-])cc1  786-0 renal      no (0)
13  N#Cc1ccc(NC(=O)Nc2nc3ccc(OC(F)(F)F)cc3s2)cc1  786-0 renal     yes (1)
14  COc1ccc(/C(=C\c2cc(OC)c(OC)c(OC)c2)C(=O)N2CCCNCC2)cc1  786-0 renal      no (0)
15  COc1ccc(C2C3=C(COC3=O)N(CCO)c3cc(OC)c(OC)cc32)cc1 (configuration not stated)  786-0 renal      no (0)
16  CCN(CC)c1ccc2nc3c4ccccc4c(=O)cc-3n(-c3ccccc3)c2c1  786-0 renal     yes (1)
17  CSC1=NC(=Nc2c(C)cccc2C)C2(CCC(C(C)(C)C)CC2)N1c1ccc(Cl)cc1 (configuration not stated)  786-0 renal      no (0)
18  CCOc1cccc(/C=N/NC(=O)Cc2ccc(Nc3ccnc(C(F)(F)F)c3)cc2)c1O  786-0 renal      no (0)
19  CCCCN(CCCC)CCC(O)c1cc2ccc(C(F)(F)F)cc2c2cc(C(F)(F)F)ccc12 (configuration not stated)  786-0 renal      no (0)
20        CCCCCCCCCCCCCCCC1=NCC[N+]1(CCO)CCO  786-0 renal      no (0)
21                    Cc1ccc(N=CNN=C(N)N)cc1  786-0 renal      no (0)
22  CN(CCO)c1ccc(N2Cc3ccccc3OC3=C2C(=O)c2c(O)ccc(O)c2C3=O)cn1  786-0 renal     yes (1)
